Assay: Cytotoxicity against human C8166 cells after 72 hrs by MTT method
Type: cell-based
reportedMetric: CC50 at 72 h (µM)
Numbers only; they are read as µM.

Task: CC50 at 72 h lookup needed for COc1cc2c(cc1OC)C(c1ccco1)NCC2 (configuration not stated) , thanks.
Result: 572

Continuing:
Task: Endpoint output: CC50 at 72 h of Oc1cc2c(cc1O)C(c1ccc(C(F)(F)F)cc1)NCC2 (configuration not stated) . Value?
Result: 42.3

Task: Consider the compound COc1ccc(C2NCCc3cc(OC)c(OC)cc32)c(OC)c1 (configuration not stated) and give its measured CC50 at 72 h.
Result: 227

====

Assay: Selectivity index, ratio of CC50 for C8166 cells to EC50 for HIV1 3B
Type: functional
# Ratio CC50/EC50 per record follows

Here is how some compounds turned out for Ratio CC50/EC50.
Task: What value of measured Ratio CC50/EC50 is listed for COc1ccc(C2NCCc3cc(O)c(O)cc32)cc1 (stereo not drawn) ?
Result: >22

Task: Please give the measured Ratio CC50/EC50 for this compound: Oc1cc2c(cc1O)C(c1ccccn1)NCC2 (stereo not drawn)
Result: >11

More entries:
Task: Requested read-out: Ratio CC50/EC50. Entry: Oc1cc2c(cc1O)C(c1cccc(Br)c1)NCC2 (stereo not drawn)
Result: >12

Task: Consider the compound shown here: Oc1cc2c(cc1O)C(c1ccccc1F)NCC2 (stereo not drawn) What is its recorded Ratio CC50/EC50?
Result: >13

Task: # get_value(readout='Ratio CC50/EC50', item= Oc1cc2c(cc1O)C(c1ccc(Br)cc1)NCC2 (stereo not drawn) )
Result: >18

Task: Data request, read-out Ratio CC50/EC50, for COc1cc2c(cc1OC)C(c1cccc(Cl)c1)NCC2 (stereo not drawn)
Result: 5.9

Task: Requested read-out: Ratio CC50/EC50. Entry: COc1cc2c(cc1OC)C(c1cccc(Br)c1)NCC2 (stereo not drawn)
Result: 2.4

Task: Field request: Ratio CC50/EC50 | item: Oc1cc2c(cc1O)C(c1ccc3ccccc3c1)NCC2 (stereo not drawn)
Result: >130

Task: Record request: Ratio CC50/EC50 value, item Oc1cc2c(cc1O)C(c1ccccc1)NCC2 (stereo not drawn)
Result: >12

Task: Bench note: what Ratio CC50/EC50 did Cc1ccc(C2NCCc3cc(O)c(O)cc32)cc1 (stereo not drawn) show?
Result: >95

Task: Endpoint output: Ratio CC50/EC50 of Oc1cc2c(cc1O)C(c1ccccc1Cl)NCC2 (stereo not drawn) . Value?
Result: >14

Task: Field request: Ratio CC50/EC50 | item: COc1cc2c(cc1OC)C(c1ccc(C(F)(F)F)cc1)NCC2 (stereo not drawn)
Result: <1

Task: Looking for the measured Ratio CC50/EC50 of Oc1cc2c(cc1O)C(c1cccc(Cl)c1)NCC2 (stereo not drawn) , can you help?
Result: >159

====

Experiment: Cytotoxicity against human C8166 cells after 72 hrs by MTT method
Format: cell-based
reportedMetric: CC50 at 72 h

Consider the reported CC50 at 72 h for these compounds:
Task: CC50 at 72 h for Cc1ccccc1C1NCCc2cc(O)c(O)cc21 (stereo not drawn) ?
Result: > 784 µM

Task: What value of CC50 at 72 h has been reported for the following compound? COc1ccc(C2NCCc3cc(OC)c(OC)cc32)cc1 (stereo not drawn)
Result: 312 µM

Task: Which CC50 at 72 h reading was recorded for the compound Oc1cc2c(cc1O)C(c1ccccc1Cl)NCC2 (stereo not drawn) ?
Result: > 727 µM

Task: Bench note: what CC50 at 72 h did Oc1cc2c(cc1O)C(c1ccccc1Br)NCC2 (stereo not drawn) show?
Result: > 625 µM

Task: CC50 at 72 h lookup needed for Oc1cc2c(cc1O)C(c1ccco1)NCC2 (stereo not drawn) , thanks.
Result: > 866 µM

More entries:
Task: Any idea what its CC50 at 72 h is? The compound is COc1cc2c(cc1OC)C(c1cccc3ccccc13)NCC2 (stereo not drawn)
Result: 64.8 µM

Task: Fill blank: measured CC50 at 72 h of the compound Oc1cc2c(cc1O)C(c1cccc(Br)c1)NCC2 (stereo not drawn) is ____.
Result: > 625 µM

Task: // query CC50 at 72 h value for entry COc1cc2c(cc1OC)C(c1ccc(C)cc1)NCC2 (stereo not drawn)
Result: 281 µM

Task: Which CC50 at 72 h reading was recorded for the compound Oc1cc2c(cc1O)C(c1ccccc1)NCC2 (stereo not drawn) ?
Result: > 830 µM

Task: For the compound Cc1ccc(C2NCCc3cc(O)c(O)cc32)cc1 (stereo not drawn) , what CC50 at 72 h is on record?
Result: > 784 µM

Task: Returns the measured CC50 at 72 h for the input compound. Input: COc1cc2c(cc1OC)C(c1ccccc1Cl)NCC2 (stereo not drawn)
Result: 249 µM

Task: Give its CC50 at 72 h value. Item: Oc1cc2c(cc1O)C(c1cccc3ccccc13)NCC2 (stereo not drawn)
Result: 47.4 µM

Task: Would you mind telling me what CC50 at 72 h value was observed for Oc1cc2c(cc1O)C(c1ccccc1F)NCC2 (stereo not drawn) ?
Result: > 772 µM

The measured values listed here are drawn from ChEMBL document CHEMBL1144663.
